Origin of values: patent US9682925B2

Biological target: MAO-A (Homo sapiens)
pIC50: −log10 of the molar value. Counter-ions that a name gives are not always drawn.
quantityMeasured: pIC50

// known answers, use as guide
compound | measurement
CC(N[C@@H]1C[C@H]1c1ccc(NC(=O)c2ccc(-c3ccccc3)cc2)cc1)c1ccccc1 (relative stereo) | 5.74
CC(C)(C)c1ccc(C(=O)Nc2ccc([C@@H]3C[C@H]3NCC3CC3)cc2)cc1 (relative stereo) [Example 70, hydrochloride] | < 5.00
CC(C)(C)n1cc(C(=O)Nc2ccc([C@@H]3C[C@H]3NCC3CC3)cc2)cn1 (relative stereo) [Example 164, hydrochloride] | < 5.00

API: the following record is the query input.
*Q* Form field - read-out: pIC50; system: MAO-A (Homo sapiens); submitted item: O=C(Nc1ccc([C@@H]2C[C@H]2NCC2CC2)cc1)c1ccc(C(F)(F)F)cc1 (relative stereo) [Example 69, hydrochloride]
*A* < 5.00

---

Biological target: human LSD1(171-852) (Homo sapiens, UniProt O60341)
Construct: to give hLSD1(171-852) purified product; made in house; host or cells: Escherichia coli C43(DE3) pLysS
Assay: Measurement of LSD1 inhibitory activity (time-resolved fluorescence, biotin-histone H3 mono methylated K4 peptide)
Type: biochemical
Conditions: read-out: LSD1 IC50 value
Counter-ions that a name gives are not always drawn.
quantityMeasured: IC50

Examples with answers:
molecule | IC50
O=C(Nc1ccc([C@@H]2C[C@H]2NCC2CC2)cc1)C1CCCCC1 (relative stereo) [Example 141, hydrochloride] | < 100 nM
CN1CCC(N[C@@H]2C[C@H]2c2ccc(NC(=O)c3ccc(-c4ccccc4)cc3)cc2)CC1 (relative stereo) | < 100 nM
O=C(Nc1ccc([C@@H]2C[C@H]2NCc2ccc(Cl)c(Cl)c2)cc1)c1ccc(-c2ccccc2)cc1 (relative stereo) | 230 nM

*Q* What IC50 value was documented for this molecule, O=C(Nc1ccc([C@@H]2C[C@H]2NCC2CC2)cc1)c1ccc(-n2ccnc2)cc1 (relative stereo) ?
*A* < 100 nM

---

Target: human LSD1(171-852) (Homo sapiens)
Construct: to give hLSD1(171-852) purified product; made in house; host or cells: Escherichia coli C43(DE3) pLysS
Assay: Measurement of LSD1 inhibitory activity (time-resolved fluorescence, biotin-histone H3 mono methylated K4 peptide)
Assay type: biochemical
Conditions: read-out: LSD1 IC50 value
Description: When the turbidity reached 600 Klett units, the culture temperature was changed to 16° C., IPTG having a final concentration of 0.5 mM was added to induce expression, and the cells were cultured further for 21 hr. […] After reaction at room temperature for 20 min, 1 mM 2-PCPA solution (5 μL) was added to terminate the reaction. […] A time-resolved fluorescence (excitation 320 nm, emission 615 nm, 665 nm) was measured by Envision (PerkinElmer). […]
pIC50: −log10 of the molar value. Where a name gives a salt, the structure may show the parent alone.
quantityMeasured: pIC50

Look over these answered cases.
compound | pIC50
CC(C)(C)c1ccc(-c2ccc(C(=O)Nc3ccc([C@@H]4C[C@H]4NCC4CC4)cc3)cc2)cc1 (relative stereo) | 5.80
CC(C)N1CCC(N[C@@H]2C[C@H]2c2ccc(NC(=O)c3cccc(C(F)(F)F)c3)cc2)CC1 (relative stereo) [Example 112, dihydrochloride] | > 7.00
O=C(Nc1ccc([C@@H]2C[C@H]2NCc2ccncc2)cc1)c1ccc(-c2ccccc2)cc1 (relative stereo) | > 7.00

*Q* Item under review: O=C(Nc1ccc([C@@H]2C[C@H]2NC2CCCCCCC2)cc1)c1ccccc1 (relative stereo) . Reported pIC50?
*A* > 7.00

*Q* Report pIC50 for O=C(Nc1ccc([C@@H]2C[C@H]2NCC2CC2)cc1)c1cc(-c2ccccc2)cs1 (relative stereo) [Example 137, hydrochloride] please.
*A* > 7.00

*Q* Dear colleague, I am looking for the recorded pIC50 of the following compound: O=C(Nc1ccc([C@@H]2C[C@H]2NCCOCc2ccccc2)cc1)c1ccc(-c2ccccc2)cc1 (relative stereo)
*A* 6.80

*Q* Quick one: pIC50 for CN1CCC(N[C@@H]2C[C@H]2c2ccc(NC(=O)c3cccc(C(F)(F)F)c3)cc2)CC1 (single isomer, unassigned) [Example 153, dihydrochloride] ?
*A* > 7.00

---

pIC50, MAO-A (Homo sapiens, UniProt P21397): measured values
pIC50: −log10 of the molar value. Counter-ions that a name gives are not always drawn.

*Q* Would you mind telling me what pIC50 value was observed for Cc1cc(C(=O)Nc2ccc([C@@H]3C[C@H]3NCC3CC3)cc2)n(C)n1 (relative stereo) [Example 156, dihydrochloride] ?
*A* < 5.00

*Q* What value of pIC50 has been reported for the following compound? Cc1ccc(C)c(C(=O)Nc2ccc([C@@H]3C[C@H]3NCC3CC3)cc2)c1 (relative stereo) [Example 106, hydrochloride]
*A* < 5.00

*Q* Item under review: O=C(Nc1ccc([C@@H]2C[C@H]2NCc2ccncc2)cc1)c1ccc(-c2ccccc2)cc1 (relative stereo) . Reported pIC50?
*A* < 5.00

*Q* Please look up its pIC50: COc1cccc(CN[C@@H]2C[C@H]2c2ccc(NC(=O)c3ccc(-c4ccccc4)cc3)cc2)c1 (relative stereo)
*A* 5.24

*Q* Record request: pIC50 value, item NS(=O)(=O)c1ccc(C(=O)Nc2ccc([C@@H]3C[C@H]3NCC3CC3)cc2)cc1 (relative stereo)
*A* < 5.00

---

Molecular target: MAO-A (Homo sapiens, UniProt P21397)
Construct: purchased Sigma-Aldrich Co. LLC
Sequence (P21397 whole entry): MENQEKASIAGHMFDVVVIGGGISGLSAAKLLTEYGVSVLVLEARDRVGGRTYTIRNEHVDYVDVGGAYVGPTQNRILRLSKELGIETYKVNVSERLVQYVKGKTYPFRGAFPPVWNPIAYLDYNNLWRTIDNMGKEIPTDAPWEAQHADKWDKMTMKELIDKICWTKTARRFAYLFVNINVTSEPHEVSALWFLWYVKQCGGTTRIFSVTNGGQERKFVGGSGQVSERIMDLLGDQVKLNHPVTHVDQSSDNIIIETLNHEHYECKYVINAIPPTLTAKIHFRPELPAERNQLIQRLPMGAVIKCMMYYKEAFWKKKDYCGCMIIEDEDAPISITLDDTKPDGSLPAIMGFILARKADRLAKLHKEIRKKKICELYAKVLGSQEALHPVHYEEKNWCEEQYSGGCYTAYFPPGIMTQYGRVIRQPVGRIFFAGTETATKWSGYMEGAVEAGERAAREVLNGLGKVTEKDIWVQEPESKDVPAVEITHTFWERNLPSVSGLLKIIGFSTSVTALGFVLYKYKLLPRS
Assay: Measurement of MAO-A inhibitory activity (MAO-Glo Assay)
Assay type: biochemical
pIC50: −log10 of the molar value. Where a name gives a salt, the structure may show the parent alone.
Listing: pIC50 of selected compounds

compound | measurement
O=C(Nc1ccc([C@@H]2C[C@H]2NCc2ccccc2)cc1)c1cccc(N2CCCCC2=O)c1 (relative stereo) [Example 33] | < 5.00
Cn1cc(C(=O)Nc2ccc([C@@H]3C[C@H]3NCC3CC3)cc2)cn1 (relative stereo) [Example 163, hydrochloride] | < 5.00
O=C(Nc1ccc([C@@H]2C[C@H]2NCC2CC2)cc1)c1cnn(-c2ccccc2)c1 (relative stereo) [Example 124] | < 5.00
O=C(Nc1ccc([C@@H]2C[C@H]2NCc2ccccc2F)cc1)c1cccc(C(F)(F)F)c1 (relative stereo) [Example 67, hydrochloride] | < 5.00
O=C(Nc1ccc([C@@H]2C[C@H]2NCC2CC2)cc1)c1ccc2[nH]ccc2c1 (relative stereo) [Example 114, trifluoroacetate] | < 5.00

*Q* Could you tell me which pIC50 is on file for O=C(Nc1ccc([C@@H]2C[C@H]2NCc2c[nH]cn2)cc1)c1ccc(-c2ccccc2)cc1 (relative stereo) [Example 66, dihydrochloride] ?
*A* < 5.00

*Q* Request the reported pIC50 associated with Cc1oc(-c2ccccc2)nc1C(=O)Nc1ccc([C@@H]2C[C@H]2NCC2CC2)cc1 (relative stereo) [Example 122]
*A* < 5.00

*Q* Give the measured pIC50 of CN(C)c1cccc(C(=O)Nc2ccc([C@@H]3C[C@H]3NCC3CC3)cc2)c1 (relative stereo) [Example 83, bis(trifluoroacetate)] .
*A* < 5.00

*Q* Fill blank: measured pIC50 of the compound O=C(Nc1ccc([C@@H]2C[C@H]2NCC2CC2)cc1)c1ccc(C2CCCCC2)cc1 (relative stereo) [Example 89] is ____.
*A* < 5.00

*Q* Sample CN1CCC(N[C@@H]2C[C@H]2c2ccc(NC(=O)c3cccc(C(F)(F)F)c3)cc2)CC1 (single isomer, unassigned) [Example 153, dihydrochloride] — what was its pIC50?
*A* < 5.00

*Q* I am curious: what pIC50 value has been reported for O=C(Nc1ccc([C@@H]2C[C@H]2NCc2ccccc2)cc1)c1cccc(-c2ccccc2)c1 (relative stereo) [Example 36] ?
*A* 5.34

*Q* Return reported pIC50; argument: O=C(Nc1ccc([C@@H]2C[C@H]2NCC2CC2)cc1)c1ccc(-c2cc[nH]n2)cc1 (relative stereo) [Example 113, hydrochloride]
*A* 5.24

*Q* Fill in the blank: the reported pIC50 of O=C(Nc1ccc([C@@H]2C[C@H]2NCc2ccc3ccccc3c2)cc1)c1ccccc1 (relative stereo) [Example 18] is ____.
*A* 5.59

---

A collection of compounds and their measured pIC50
Biological target: human LSD1(171-852) (Homo sapiens)
Construct: to give hLSD1(171-852) purified product; made in house; host or cells: Escherichia coli C43(DE3) pLysS
Assay: Measurement of LSD1 inhibitory activity (time-resolved fluorescence, biotin-histone H3 mono methylated K4 peptide)
Assay type: biochemical
Conditions: read-out: LSD1 IC50 value
Counter-ions that a name gives are not always drawn.
pIC50 here: minus log base 10 of the concentration, concentration in moles per litre.

Solved cases (2 shown):
compound | pIC50
COc1cccc(CN[C@@H]2C[C@H]2c2ccc(NC(=O)c3ccc(-c4ccccc4)cc3)cc2)c1 (relative stereo) | 6.96
CC(C)(C)c1cccc(C(=O)Nc2ccc([C@@H]3C[C@H]3NCc3ccccc3)cc2)c1 (relative stereo) | 6.55

Now for the compound whose pIC50 we want.
*Q* Entry under review: O=C(N[C@H](Cc1ccccc1)C(=O)Nc1ccc(C2CC2NCc2ccccc2)cc1)OCc1ccccc1 (stereo in doubt) [Example 58, hydrochloride] . Reported pIC50?
*A* 6.39
